B1: DCAF4 (parent)
chain: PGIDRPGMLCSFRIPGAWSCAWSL

variants of: B1; test: protein stability index of a GFP-peptide fusion (GPS, HEK-293T) (PSI 1-6); higher = more stable; conditions: c terminus: a fixed tail appended;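 note: lentivirally expressed fusions sorted by FACS into six bins by GFP to DsRed ratio, PSI derived from sequencing read proportions per bin multiplied by bin number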
Mark Not satisfied for protein stability index values under 3, and Satisfied for everything at or above.

Reference set (3 entries):
seq_string	qualitative_label
PGIDRPGMLCSFRIPGIWSCAWSL [A17I]	Not satisfied
PGIDRPGMLCSFRMPGAWSCAWSL [I14M]	Not satisfied
PGIDRPGMECSFRIPGAWSCAWSL [L9E]	Not satisfied

Textbook exercise: given the entry PGIDRPGMLWSFRIPGAWSCAWSL [C10W] , state whether its protein stability index is greater than or equal to 3.
Satisfied

Is reported protein stability index greater than or equal to 3 here: PGIDRKGMLCSFRIPGAWSCAWSL [P6K]
Not satisfied

hey, is protein stability index for this one >= 3? PDIDRPGMLCSFRIPGAWSCAWSL [G2D]
Satisfied

Say whether PGIDRPGMLCSFRIPGAWSCAKSL [W22K] shows protein stability index of 3 or more.
Not satisfied

Is it the case that PGIDRPGMLFSFRIPGAWSCAWSL [C10F] has protein stability index reaching or exceeding 3?
Satisfied

Has PGIDCPGMLCSFRIPGAWSCAWSL [R5C] a recorded protein stability index greater than or equal to 3?
Not satisfied

Dear colleague, could you confirm whether PGIDRPPMLCSFRIPGAWSCAWSL [G7P] has protein stability index at or above 3?
Not satisfied

Check this variant for protein stability index at or above 3: PGIDRPGMLCSFRIHGAWSCAWSL [P15H]
Satisfied

Confirm if protein stability index reported for the variant PGIDRPGMLCSFRIPGAWSCALSL [W22L] is 3 or above.
Not satisfied

Is the recorded value of protein stability index equal to or greater than 3 for this variant? PGIDRPGMLCSFRIPGAWYCAWSL [S19Y]
Satisfied

Is the recorded value of protein stability index equal to or greater than 3 for this variant? PGIDRPGMLCSQRIPGAWSCAWSL [F12Q]
Not satisfied

Does the reported protein stability index for PGIDRPGMLCSNRIPGAWSCAWSL [F12N] fall at or above the 3 mark?
Not satisfied

Does PGIDRPGSLCSFRIPGAWSCAWSL [M8S] have a reported protein stability index of at least 3?
Satisfied

Could you tell me if the measured protein stability index of PGIDRPGMLCSWRIPGAWSCAWSL [F12W] reaches 3 or more?
Satisfied

Evaluate PGIDRPGMLISFRIPGAWSCAWSL [C10I] : protein stability index at minimum 3?
Satisfied

Hi team, for PGIDRPGMLCSFTIPGAWSCAWSL [R13T] , is the recorded protein stability index at or above 3?
Satisfied

Each recorded value in this set is attributed to the supplement of paper PMC10567573.
